Target: glucosylceramide synthase (Homo sapiens, UniProt Q16739)
Construct: made in house; host or cells: Expi293F cells (transient expression, pcDNA3.3-TOPO vector); microsome fraction used as enzyme source
Sequence (Q16739 whole entry): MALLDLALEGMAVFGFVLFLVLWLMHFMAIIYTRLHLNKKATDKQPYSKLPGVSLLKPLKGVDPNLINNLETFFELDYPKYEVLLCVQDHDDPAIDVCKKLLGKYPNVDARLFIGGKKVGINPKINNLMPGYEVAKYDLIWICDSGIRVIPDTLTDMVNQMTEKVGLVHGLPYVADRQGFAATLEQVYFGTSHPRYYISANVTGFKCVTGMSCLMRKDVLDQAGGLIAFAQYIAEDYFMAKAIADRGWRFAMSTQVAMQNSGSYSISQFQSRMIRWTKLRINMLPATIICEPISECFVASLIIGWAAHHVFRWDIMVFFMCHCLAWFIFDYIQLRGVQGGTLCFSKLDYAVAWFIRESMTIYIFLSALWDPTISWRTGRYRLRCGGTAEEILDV
Assay: Glucosylceramide synthase (GCS) enzyme assay, microsome fraction, C8 glucosylceramide quantified by Rapidfire MS/MS
Type: biochemical
Conditions: test compound 10 μM; 1.7 μM UDP-glucose, 3 μM C8 ceramide; room temperature 60 min; read-out: GCS enzyme inhibitory rate at 10 μM (%) (% of control)
Description: Glucosylceramide Synthase (GCS) Assay In enzyme assay, a microsome fraction obtained by transient expression by Expi293F™ cells (catalog number: A14527, Thermo Fisher Scientific) was used as a glucosylceramide synthase source. […] After the enzymatic reaction, the analysis was performed with Rapidfire MS/MS (API-4000™, SCIEX), and C8 glucosylceramide was quantified to evaluate the inhibitory activity of the test compound against glucosylceramide synthase activity. […]
Provide the recorded inhibition at 10 µM for the entries that follow.
One number for each entry, in %.

CS(=O)(=O)c1ccc(N2Cc3c(ccnc3-c3ccc(F)cc3OCC(F)(F)F)C2=O)nc1	64
COc1ccccc1-c1nccc2c1CN(c1ccc(OC(F)(F)F)cn1)C2=O	96
CN(C)C(=O)c1ccc(N2Cc3cnn(-c4ccc(F)cc4OCC(F)(F)F)c3C2)nc1	61
O=C1c2ccnc(-c3ccncc3OCC(F)(F)F)c2CN1c1ccc(C2(O)CCC2)cc1	99
O=C1c2ccnc(-c3ccc(F)cc3OCC(F)(F)F)c2CN1c1ccc(C(O)(C(F)(F)F)C(F)(F)F)cc1	99
CC(C)(O)C(F)(F)c1ccc(N2Cc3c(ccnc3-c3ccc(F)cc3OCC(F)(F)F)C2=O)cn1	79

I have 2 compounds here; please give me inhibition at 10 µM for each one.
1. CC(C)(C)[Si](C)(C)OC1(c2ccc(N3Cc4c(ccnc4-c4ccc(F)cc4OCC(F)(F)F)C3=O)cc2)CC1
2. Cn1cc2c(c(-c3ccccc3OCC(F)(F)F)c1=O)CN(c1ccc(OC(F)F)cc1)C2=O

1. 99
2. 100

I would be grateful if you could provide inhibition at 10 µM for each of the following entries.
1. Cc1cc2c(c(-c3c(F)cccc3OCC(F)(F)F)n1)CN(c1ccc(C(C)(C)O)cc1)C2=O
2. O=C1c2ccnc(-c3ccncc3OCC(F)(F)F)c2CN1c1ccc(OC(F)F)cn1
3. N#CCOc1cc(F)ccc1-c1nccc2c1CN(c1ccc(OC(F)F)nc1)C2=O
4. O=C1c2ccc(=O)n(-c3ccccc3OCC(F)(F)F)c2CN1c1ccc(OC(F)(F)F)cc1
5. O=C(c1ccc(N2Cc3c(ccnc3-c3ccc(F)cc3OCC(F)(F)F)C2=O)cc1)N1CCC1

1: 100; 2: 99; 3: 98; 4: 99; 5: 87

###

molecular target: glucosylceramide synthase (Homo sapiens); construct: made in house; host or cells: Expi293F cells (transient expression, pcDNA3.3-TOPO vector); microsome fraction used as enzyme source; assay: Glucosylceramide synthase (GCS) enzyme assay, microsome fraction, C8 glucosylceramide quantified by Rapidfire MS/MS; type: biochemical; settings: test compound 10 μM; 1.7 μM UDP-glucose, 3 μM C8 ceramide; room temperature 60 min; read-out: GCS enzyme inhibitory rate at 10 μM (%) (% of control)
QUANTITY_NAME: inhibition at 10 µM

// below: answered compounds
COCCOc1cc(F)ccc1-c1nccc2c1CN(c1ccc(OC(F)F)nc1)C2=O	66%
CC(O)(c1ccc(N2Cc3c(ccnc3-c3ccc(F)cc3OCC(F)(F)F)C2=O)cc1)C(F)(F)F (racemic)	99%
O=C1c2ccnc(-c3ccc(F)cc3OCC(F)(F)F)c2CN1c1ccc(N2CCOCC2)nc1	98%

Which inhibition at 10 µM reading was recorded for the compound `COCc1ccc(N2Cc3c(ccnc3-c3ccc(F)cc3OCC(F)(F)F)C2=O)cc1` ?
94%
